Value source: ChEMBL document CHEMBL1909294

// endpoint DILI positive/negative / system Hepatotoxicity
In your answer, state the number alone without any accompanying words.

Examples with their reported DILI positive/negative follow.
[
  {
    "compound": "C[C@@](Cc1ccc(O)c(O)c1)(NN)C(=O)O.O",
    "recorded.result": 0
  },
  {
    "compound": "CC(=O)O[C@H]1C[C@@]2(C)[C@@H](C[C@@H](O)[C@H]3[C@@]4(C)CC[C@@H](O)[C@@H](C)[C@@H]4CC[C@@]32C)/C1=C(\\CCC=C(C)C)C(=O)O",
    "recorded.result": 1
  },
  {
    "compound": "CC(N/C(=N\\C#N)Nc1ccncc1)C(C)(C)C (stereo not given) [PINACIDIL ANHYDROUS]",
    "recorded.result": 0
  },
  {
    "compound": "CN(C)CCN(Cc1cccs1)c1ccccn1",
    "recorded.result": 1
  }
]

# next compound below
input: So what's the measured DILI positive/negative for this one? CC(C)(Oc1ccc(C2CC2(Cl)Cl)cc1)C(=O)O (stereo not given) [CIPROFIBRATE]
output: 1

* * *

# HepSE_hepatic necrosis values compiled below
- Test system: Hepatotoxicity
Just the number, please.

[
  {
    "compound": "CC(=O)N1CCN(c2ccc(OCC3COC(Cn4ccnc4)(c4ccc(Cl)cc4Cl)O3)cc2)CC1 (centres undefined) [KETOCONAZOLE]",
    "HepSE_hepatic necrosis": 0
  },
  {
    "compound": "O=C1Cc2cc(CCN3CCN(c4nsc5ccccc45)CC3)c(Cl)cc2N1 [ZIPRASIDONE]",
    "HepSE_hepatic necrosis": 0
  },
  {
    "compound": "CCNC(=O)[C@@H]1CCCN1C(=O)[C@H](CCCNC(=N)N)NC(=O)[C@H](CC(C)C)NC(=O)[C@@H](COC(C)(C)C)NC(=O)[C@H](Cc1ccc(O)cc1)NC(=O)[C@H](CO)NC(=O)[C@H](Cc1c[nH]c2ccccc12)NC(=O)[C@H](Cc1cnc[nH]1)NC(=O)[C@@H]1CCC(=O)N1 [BUSERELIN]",
    "HepSE_hepatic necrosis": 0
  },
  {
    "compound": "CN[C@@H]1[C@H](O)[C@H](NC)[C@H]2O[C@@]3(O)C(=O)C[C@@H](C)O[C@H]3O[C@@H]2[C@H]1O [SPECTINOMYCIN]",
    "HepSE_hepatic necrosis": 0
  }
]

input: // returns reported HepSE_hepatic necrosis for input CCC(=O)O[C@@H](O[P@](=O)(CCCCc1ccccc1)CC(=O)N1C[C@H](C2CCCCC2)C[C@H]1C(=O)O)C(C)C [FOSINOPRIL]
output: 0

input: For the compound O=C1C(O)=C([C@H]2CC[C@H](c3ccc(Cl)cc3)CC2)C(=O)c2ccccc21 [ATOVAQUONE] , what HepSE_hepatic necrosis is on record?
output: 0

input: Fill blank: measured HepSE_hepatic necrosis of the compound COc1ccc2c3c1O[C@H]1C[C@@H](O)C=C[C@@]31CCN(C)C2 [GALANTAMINE] is ____.
output: 0

input: What value of HepSE_hepatic necrosis has been recorded for this entry: c1ccc2c(CC3=NCCN3)cccc2c1 [NAPHAZOLINE]
output: 0

input: Please look up its HepSE_hepatic necrosis: CNC(=C[N+](=O)[O-])NCCSCc1csc(CN(C)C)n1 [NIZATIDINE]
output: 0

input: # lookup: HepSE_hepatic necrosis of Cc1ccc(C(=O)c2ccc(CC(=O)O)n2C)cc1 [TOLMETIN]
output: 0

input: What value of measured HepSE_hepatic necrosis is listed for O=c1n(CCCN2CCN(c3cccc(Cl)c3)CC2)nc2ccccn12 [TRAZODONE] ?
output: 0

* * *

Entries below carry reported HepSE_elevated liver function tests on Hepatotoxicity.
Reply: number alone, nothing else.

Below, 3 compounds whose answers are already recorded.
[
  {
    "compound": "Clc1ccc(C(c2ccccc2Cl)C(Cl)Cl)cc1 (configuration not stated)",
    "recorded.result": 0
  },
  {
    "compound": "CC(CCc1ccccc1)NCC(O)c1ccc(O)c(C(N)=O)c1 (configuration not stated)",
    "recorded.result": 1
  },
  {
    "compound": "C[C@@H]1[C@H](O)[C@@H](C)/C=C/C=C/C=C/C=C/C=C/C=C/C=C/[C@H](O[C@@H]2O[C@H](C)[C@@H](O)[C@H](N)[C@@H]2O)C[C@@H]2O[C@](O)(C[C@@H](O)C[C@@H](O)[C@H](O)CC[C@@H](O)C[C@@H](O)CC(=O)O[C@H]1C)C[C@H](O)[C@H]2C(=O)O",
    "recorded.result": 0
  }
]

input: Form field - read-out: HepSE_elevated liver function tests; system: Hepatotoxicity; submitted item: CCCCc1ncc(/C=C(\Cc2cccs2)C(=O)O)n1Cc1ccc(C(=O)O)cc1
output: 0

input: Hepatotoxicity / HepSE_elevated liver function tests / Cc1cccc(C)c1NC(=O)C1CCCCN1C (configuration not stated) [MEPIVACAINE] : value?
output: 0

input: Provide value of HepSE_elevated liver function tests for this record tested with Hepatotoxicity: CC(C)C(=O)Nc1ccc([N+](=O)[O-])c(C(F)(F)F)c1 [FLUTAMIDE]
output: 0

input: Give recorded HepSE_elevated liver function tests with Hepatotoxicity for the following compound: OC[C@H]1O[C@@H](n2cnc3c2NC=NC[C@H]3O)C[C@@H]1O
output: 1

* * *

Assay system Hepatotoxicity; read-out recorded as HepSE_jaundice.
No unit in the answer, only the number.

input: What value of HepSE_jaundice on Hepatotoxicity does CISPLATIN have?
output: 0

input: So what HepSE_jaundice did GADOFOSVESET TRISODIUM get with Hepatotoxicity?
output: 0

input: API: value(readout= HepSE_jaundice, system= Hepatotoxicity, query= GOLD SODIUM THIOMALATE )
output: 1

input: Lab note: need HepSE_jaundice with Hepatotoxicity for entry VERTEPORFIN , please look it up.
output: 0

input: Record lookup: for Hepatotoxicity, what HepSE_jaundice belongs to COLESEVELAM HYDROCHLORIDE ?
output: 0

input: What value of HepSE_jaundice on Hepatotoxicity does NYSTATIN have?
output: 0

input: Kindly state the measured HepSE_jaundice obtained for MANGAFODIPIR with Hepatotoxicity.
output: 0

input: Recorded HepSE_jaundice for PORFIMER SODIUM with Hepatotoxicity, please?
output: 1

input: # query: HepSE_jaundice | item SEVELAMER | system: Hepatotoxicity
output: 0

* * *

Measured HepSE_cholecystitis, listed per entry for reference.
- Test system: Hepatotoxicity
Lab note: record just the number, no unit beside it.

Here's what some known entries look like.
[
  {
    "compound": "CCN[C@H]1C[C@H](C)S(=O)(=O)c2sc(S(N)(=O)=O)cc21 [DORZOLAMIDE]",
    "HepSE_cholecystitis": 0
  },
  {
    "compound": "CN1CC(=O)N2[C@H](c3ccc4c(c3)OCO4)c3[nH]c4ccccc4c3C[C@@H]2C1=O",
    "HepSE_cholecystitis": 0
  },
  {
    "compound": "CN(Cc1ccc(C(C)(C)C)cc1)Cc1cccc2ccccc12",
    "HepSE_cholecystitis": 0
  }
]

Moving on to the next compound.
input: Query the reported HepSE_cholecystitis for Hepatotoxicity; item: CCCC(C)(COC(N)=O)COC(N)=O [MEPROBAMATE]
output: 0

* * *

Hepatotoxicity data, read-out HepSE_hepatic failure
Keep the answer to the number alone.

// below: answered molecules
[
  {
    "molecule": "Nc1ccc(O)c(C(=O)O)c1 [MESALAMINE]",
    "HepSE_hepatic failure": 1
  },
  {
    "molecule": "CC[C@@H]1/C=C(\\C)C[C@H](C)C[C@H](OC)[C@H]2O[C@@](O)(C(=O)C(=O)N3CCCC[C@H]3C(=O)O[C@H](/C(C)=C/[C@@H]3CC[C@H](Cl)[C@H](OC)C3)[C@H](C)[C@@H](O)CC1=O)[C@H](C)C[C@@H]2OC [PIMECROLIMUS]",
    "HepSE_hepatic failure": 0
  }
]

# context switch: different molecule, same HepSE_hepatic failure
input: Lab note: need HepSE_hepatic failure with Hepatotoxicity for entry C[C@]12CCC(=O)C=C1CC[C@@H]1[C@@H]2C(=O)C[C@@]2(C)[C@H]1CC[C@]2(O)C(=O)CO [CORTISONE] , please look it up.
output: 0

* * *

HepSE_bilirubinemia data for Hepatotoxicity follow.
Number, no unit, nothing else.

input: Report HepSE_bilirubinemia for C[C@]12C=CC(=O)N[C@@H]1CC[C@@H]1[C@@H]2CC[C@]2(C)[C@@H](C(=O)Nc3cc(C(F)(F)F)ccc3C(F)(F)F)CC[C@@H]12 [DUTASTERIDE] tested on Hepatotoxicity.
output: 0

input: Give HepSE_bilirubinemia (Hepatotoxicity) of the following compound: O=C(O)c1ccc(-n2nc(-c3ccccc3O)nc2-c2ccccc2O)cc1 [DEFERASIROX]
output: 0

input: Lab note: need HepSE_bilirubinemia with Hepatotoxicity for entry CN(C)CCOC(=O)C(c1ccccc1)C1(O)CCCC1 (configuration not stated) [CYCLOPENTOLATE] , please look it up.
output: 0

input: Can you look up HepSE_bilirubinemia on Hepatotoxicity for CO/N=C(\C(=O)N[C@@H]1C(=O)N2C(C(=O)[O-])=C(C[N+]3(C)CCCC3)CS[C@H]12)c1csc(N)n1 ?
output: 0

input: Quick check: HepSE_bilirubinemia on Hepatotoxicity, item CC(=O)NCCCS(=O)(=O)O [ACAMPROSATE] ?
output: 1

input: Recall the recorded HepSE_bilirubinemia for CN(C)CCc1c[nH]c2ccc(Cn3cncn3)cc12 [RIZATRIPTAN] with Hepatotoxicity and state it.
output: 0
